Quick reference: IC50 of the listed items.
assayedTarget: Human TASK-1 channels (Homo sapiens (Human), UniProt O14649)
Sequence (O14649 whole entry): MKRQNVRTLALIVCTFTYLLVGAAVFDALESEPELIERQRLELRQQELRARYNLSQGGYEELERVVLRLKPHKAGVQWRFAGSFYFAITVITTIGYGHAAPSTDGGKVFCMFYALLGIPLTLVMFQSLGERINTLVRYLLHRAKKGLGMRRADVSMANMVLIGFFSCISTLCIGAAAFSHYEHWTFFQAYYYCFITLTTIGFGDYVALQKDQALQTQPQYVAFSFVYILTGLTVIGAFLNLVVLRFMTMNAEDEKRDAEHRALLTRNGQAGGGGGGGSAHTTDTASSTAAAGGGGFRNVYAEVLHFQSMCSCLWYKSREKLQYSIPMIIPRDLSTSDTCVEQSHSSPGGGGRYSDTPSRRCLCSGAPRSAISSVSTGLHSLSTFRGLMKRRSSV
procedureSummary: Determination of the activity on the TASK-1 channel in Xenopus oocytes (two-microelectrode voltage clamp)
experimentalConditions: human TASK-1 expressed in Xenopus oocytes, room temperature; read-out: IC50 value for TASK-1 inhibition

compound: CCOC(=O)C[C@H]1CCCN1C(=O)c1cc(C(=O)N[C@H](CC)c2ccccc2)c2n1CCOC2 [16fi]
scaleUnit: nM
IC50: 130

compound: CC[C@@H](NC(=O)c1cc(C(=O)NCc2cnco2)c2n1CCCC2)c1ccccc1 [16mc]
scaleUnit: nM
IC50: 620

compound: CC[C@@H](NC(=O)c1cc(C(=O)NCC2CCOCC2)n2c1CCCC2)c1ccccc1 [16mq]
scaleUnit: nM
IC50: 310

compound: CC[C@@H](NC(=O)c1cc(C(=O)N2CCC[C@@H]2C)n2c1COCC2)c1ccc(SC(F)(F)F)cc1 [16ax]
scaleUnit: nM
IC50: 350

compound: CC[C@@H](NC(=O)c1cc(C(=O)NCC2CCCCC2)n2c1CCCC2)c1ccccc1 [16mp]
scaleUnit: nM
IC50: 93

compound: C[C@H]1CCCN1C(=O)c1cc(C(=O)NCc2ccc(F)cc2Cl)c2n1CCOC2 [16x]
scaleUnit: nM
IC50: 190

compound: CC[C@@H](NC(=O)c1cc(C(=O)N2CCC[C@@H]2C)n2c1COCC2)c1ccc(Cl)s1 [16rb]
scaleUnit: nM
IC50: 230

compound: CC[C@@H](NC(=O)c1cc(C(=O)N2CCC(c3ccccc3)C2)n2c1CCCC2)c1ccccc1 (some centres unmarked) [16ms]
scaleUnit: nM
IC50: 550

###

assayedTarget: Human TASK-1 channels (Homo sapiens (Human), UniProt O14649)
procedureSummary: Determination of the activity on the TASK-1 channel in Xenopus oocytes (two-microelectrode voltage clamp)
experimentalConditions: human TASK-1 expressed in Xenopus oocytes, room temperature; read-out: IC50 value for TASK-1 inhibition
pIC50: −log10 of the molar value.
Parameter pIC50: see the listing below.

compound: CC[C@@H](NC(=O)c1cc(C(=O)N2CC[C@H](F)C2)n2c1COCC2)c1ccccc1 [16fn]
assayedTarget: Human TASK-1 channels (Homo sapiens (Human), UniProt O14649)
pIC50: 6.80
//
compound: CC[C@@H](NC(=O)c1cc(C(=O)N2CCCC2C(C)C)n2c1COCC2)c1ccccc1 (stereo partly shown) [16el]
assayedTarget: Human TASK-1 channels (Homo sapiens (Human), UniProt O14649)
pIC50: 6.42
//
compound: CC[C@@H](NC(=O)c1cc(C(=O)N2CCC[C@@H]2C)n2c1COCC2)c1cccc(C#N)c1 [16aj]
assayedTarget: Human TASK-1 channels (Homo sapiens (Human), UniProt O14649)
pIC50: 6.26
//
compound: CC[C@H](NC(=O)c1cc(C(=O)N[C@H](CC)c2ncccn2)c2n1CCOC2)c1ccccc1 [16kb]
assayedTarget: Human TASK-1 channels (Homo sapiens (Human), UniProt O14649)
pIC50: 6.21

###

assayedTarget: Human TASK-1 channels (Homo sapiens (Human))
procedureSummary: Determination of the activity on the TASK-1 channel in Xenopus oocytes (two-microelectrode voltage clamp)
Type: cell-based
experimentalConditions: compound concentration 5 μM
Experimental: Determination of the activity on the TASK-1 channel in Xenopus oocytes Human TASK-1 channels were expressed in Xenopus oocytes. For this purpose, oocytes were isolated from Xenopus laevis and defoliculated. […] After two days of TASK-1 protein expression, TASK-1 currents were measured by two-microelectrode voltage clamp. […] Oocytes were clamped to −90 mV and TASK-1 mediated currents were measured during 500 ms voltage pulses to 40 mV. […]
// label = Condition met if inhibition at 5 µM is not less than 80%, otherwise Condition not met

compound: C[C@@H](NC(=O)c1cc(C(=O)NCC(F)(F)F)c2n1CCOC2)c1ccc(F)cc1 [16dr]
assignedClass: Condition met

compound: CC(C)[C@@H](NC(=O)c1cc(C(=O)NCc2ncco2)c2n1CCOC2)c1ccc(F)cc1 [16ll]
assignedClass: Condition met

compound: CC[C@@H](NC(=O)c1cc(C(=O)N2CCC[C@@H]2C)n2c1COCC2)c1cncc(Cl)c1 [16cj]
assignedClass: Condition not met

compound: CC[C@@H](NC(=O)c1cc(C(=O)N2CCC[C@@H]2C)n2c1COCC2)c1ccc(C)cc1 [16be]
assignedClass: Condition met

compound: CC[C@H](NC(=O)c1cc(C(=O)N[C@H](CC)c2ccc(C(F)(F)F)nc2)c2n1CCOC2)c1ccccc1 [16kf]
assignedClass: Condition met

compound: CC[C@@H](NC(=O)c1cc(C(=O)N2CCC[C@@H]2C)n2c1COCC2)c1cncc(C(F)(F)F)c1 [16bk]
assignedClass: Condition not met

compound: CC[C@@H](NC(=O)c1cc(C(=O)N2CCC[C@@H]2C)n2c1COCC2)c1ncccn1 [16bd]
assignedClass: Condition not met

compound: CC[C@@H](NC(=O)c1cc(C(=O)N2CCC[C@@H]2C)c2n1CCOC2)c1ccc(C#N)cc1 [16nl]
assignedClass: Condition not met

compound: CC[C@H](NC(=O)c1cc(C(=O)N[C@H](C)c2ncccn2)c2n1CCOC2)c1ccccc1 [16kg]
assignedClass: Condition not met

compound: CC[C@@H](NC(=O)c1cc(C(=O)N2CCC[C@@H]2C)n2c1COCC2)c1ncccc1OC [16ao]
assignedClass: Condition met

compound: C#CC1CCCN1C(=O)c1cc(C(=O)N[C@H](CC)c2ccccc2)c2n1CCOC2 (some centres unmarked) [16fx]
assignedClass: Condition met

compound: CC[C@@H](NC(=O)c1cc(C(=O)N2CCC[C@@H]2C)n2c1CCCC2)c1ccc2c(c1)COC2=O [16lz]
assignedClass: Condition not met

compound: CCN(Cc1nnn(C)n1)C(=O)c1cc(C(=O)N[C@H](C)c2ccc(F)cc2)n2c1COCC2 [16rt]
assignedClass: Condition not met

compound: CC[C@@H](NC(=O)c1cc(C(=O)N2CC[C@@H](C#N)C2)n2c1COCC2)c1ccccc1 [16fy]
assignedClass: Condition not met

###

Reported IC50 values for the following compounds.
assayedTarget: Human TASK-1 channels (Homo sapiens (Human), UniProt O14649)
procedureSummary: Determination of the activity on the TASK-1 channel in Xenopus oocytes (two-microelectrode voltage clamp)
experimentalConditions: human TASK-1 expressed in Xenopus oocytes, room temperature; read-out: IC50 value for TASK-1 inhibition
testReadout: IC50 (nM)

compound: CC[C@@H](NC(=O)c1cc(C(=O)N2CCC[C@@H]2C(F)(F)F)n2c1COCC2)c1ccccc1 [16eu]
scaleUnit: nM
assayValue: 49
--
compound: CC[C@@H](NC(=O)c1cc(C(=O)NCCC2CC2)n2c1COCC2)c1ccccc1 [16gk]
scaleUnit: nM
assayValue: 36
--
compound: CC[C@@H](NC(=O)c1cc(C(=O)N2CCC[C@@H]2C)n2c1COCC2)c1cccnc1C(F)(F)F [16r]
scaleUnit: nM
assayValue: 1900
--
compound: CC[C@@H](NC(=O)c1cc(C(=O)N[C@@H]2CCc3ccccc32)n2c1COCC2)c1ccccc1 [16gp]
scaleUnit: nM
assayValue: 570
--
compound: CC[C@@H](NC(=O)c1cc(C(=O)N[C@H](CC)c2cnccn2)n2c1COCC2)c1ccccc1 [16hw]
scaleUnit: nM
assayValue: 360
--
compound: CC[C@H](NC(=O)c1cc(C(=O)N[C@H](C)c2ccc(F)cc2)n2c1COCC2)c1ncccn1 [16h]
scaleUnit: nM
assayValue: 240
--
compound: CC[C@@H](NC(=O)c1cc(C(=O)N2CCC[C@@H]2C)n2c1COCC2)c1ccc(C(F)(F)F)nc1C [16cb]
scaleUnit: nM
assayValue: 140
--
compound: CC[C@@H](NC(=O)c1cc(C(=O)N2CCC[C@@H]2C)n2c1COCC2)c1cnc(C(F)(F)F)cc1Cl [16br]
scaleUnit: nM
assayValue: 880
